Data provenance: patent US4221787A

System: mouse skin
Settings: in vivo
MEASUREMENT_LABEL: % Decrease from Control (double fold skin thickness) (%)

CCCC(=O)O[C@]1(C(=O)CO)CC[C@H]2[C@@H]3CCC4=CC(=O)CC[C@]4(C)[C@H]3[C@@H](O)C[C@@]21C [Hydrocortisone 17-butyrate] : 39.2
CC(=O)OCC(=O)[C@@]1(O)CC[C@H]2[C@@H]3CCC4=CC(=O)CC[C@]4(C)[C@H]3[C@@H](O)C[C@@]21C [Hydrocortisone 21-acetate] : 37.5
CC1(C)O[C@@H]2C[C@H]3[C@@H]4CCC5=CC(=O)C=C[C@]5(C)[C@@]4(F)[C@@H](O)C[C@]3(C)[C@]2(C(=O)CO)O1 [Triamcinolone acetonide] : 45.8
CCN(CC)C(=O)CCC(=O)OCC(=O)[C@@]1(O)CC[C@H]2[C@@H]3CCC4=CC(=O)CC[C@]4(C)[C@H]3[C@@H](O)C[C@@]21C : 26.7
